# target entity: c-Cbl (Homo sapiens (Human), UniProt P22681)
# Sequence (P22681 47-435): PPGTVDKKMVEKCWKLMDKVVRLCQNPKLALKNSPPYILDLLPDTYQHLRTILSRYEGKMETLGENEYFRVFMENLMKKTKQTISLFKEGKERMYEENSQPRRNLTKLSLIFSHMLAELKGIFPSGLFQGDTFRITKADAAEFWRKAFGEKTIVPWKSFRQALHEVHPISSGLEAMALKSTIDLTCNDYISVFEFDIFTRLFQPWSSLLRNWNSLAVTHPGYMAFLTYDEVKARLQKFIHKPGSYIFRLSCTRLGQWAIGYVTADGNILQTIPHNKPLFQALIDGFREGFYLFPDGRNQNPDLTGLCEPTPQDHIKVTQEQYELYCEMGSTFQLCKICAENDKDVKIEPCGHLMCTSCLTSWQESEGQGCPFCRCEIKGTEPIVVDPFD
# assay info: C-Cbl LCK Ub TR-FRET assay (c-cbl Lck HTRF)
# Type: biochemical
# condition notes: C-cbl Lck HTRF IC50 relative to Cbl-b Lck HTRF IC50
measure name: (fold-selectivity)

// worked examples, (fold-selectivity) included
- structure: "CCNCc1cc2c(c(C(F)(F)F)c1)CN(c1cccc(C3([C@@H](F)c4nncn4C)COC3)c1)C2=O"
  (fold-selectivity): "1.6x"
- structure: "COCC1CCN(Cc2cc3c(c(C(F)(F)F)c2)CN(c2cccc(C4([C@@H](F)c5nncn5C)COC4)c2)C3=O)CC1"
  (fold-selectivity): "1.4x"

# next molecule below
Problem: Identify (fold-selectivity) associated with the molecule CCc1cccc2c1CN(c1cccc(C3([C@@H](F)c4nncn4C)COC3)c1)C2=O
Result: 1.7x
